Test: chemical genetic growth profiling, strain panel (AID 1159580);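 note: tested at 20 µM; growth read once vehicle control cultures reached saturation at 30 °C; 1 = growth at the plate median or of vehicle wells; lower values mean less growth of the strain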
Settings: S. cerevisiae deletion strains, growth OD, locus YLR221C, strain rsa3, hits give low values
Hit rate of the full screen: of about 5,500 compounds, about 2,000 (36%) were called active. Roughly 18% stayed inconclusive and do not appear here. Some of the results follow.
VALUE_TYPE: normalized growth
# respond with the number and nothing more

>  <COMPOUND>
O=P1(NCCCl)OCCCN1CCCl (stereo not given)

>  <normalized growth>
0.981

$$$$

IN: Please indicate normalized growth recorded for Cc1cc(=O)oc2cc(O)cc(O)c12
OUT: 0.977

IN: Report normalized growth for CC(C)CCCC(C)[C@H]1CCC2C3CC=C4C[C@@H](O)CC[C@]4(C)C3CC[C@@]21C (stereo not given in full)
OUT: 1.08

IN: Look up normalized growth of NC(Cn1ccc(=O)c(O)c1)C(=O)O (stereo not given) and report it.
OUT: 1

IN: Give normalized growth for the following compound: CC(=O)Nc1ccc(S(=O)(=O)Nc2onc(C)c2C)cc1
OUT: 0.987

IN: Report measured normalized growth; entry is Cc1cc(=O)[nH]c(=S)[nH]1
OUT: 0.973

IN: Annotate the compound CO[C@H]1CC(O[C@@H]2/C(C)=C/C[C@@H]3C[C@@H](C[C@]4(CC[C@H](C)[C@@H](C5CCCCC5)O4)O3)OC(=O)[C@@H]3C=C(C)/C(=N\O)[C@H]4OC/C(=C\C=C\[C@@H]2C)[C@]43O)O[C@@H](C)C1O (stereo not given in full) with its measured normalized growth.
OUT: 1.01

IN: Output normalized growth of CC(C)=CCc1c2c(c3occ(-c4ccc(O)cc4)c(=O)c3c1O)C=CC(C)(C)O2
OUT: 0.858

IN: Please indicate normalized growth recorded for CC(C)CCCC(C)C1CCC2C3=CC[C@H]4C[C@@H](O)CC[C@]4(C)C3CC[C@@]21C (stereo not given in full)
OUT: 0.946

IN: Note down normalized growth recorded for CC(C)=CCc1c2c(c3occ(-c4ccc(O)c(O)c4)c(=O)c3c1O)C=CC(C)(C)O2
OUT: 0.905
